- system-name: CDK9/CycTI (Homo sapiens, UniProt P50750)
- Sequence (P50750 whole entry): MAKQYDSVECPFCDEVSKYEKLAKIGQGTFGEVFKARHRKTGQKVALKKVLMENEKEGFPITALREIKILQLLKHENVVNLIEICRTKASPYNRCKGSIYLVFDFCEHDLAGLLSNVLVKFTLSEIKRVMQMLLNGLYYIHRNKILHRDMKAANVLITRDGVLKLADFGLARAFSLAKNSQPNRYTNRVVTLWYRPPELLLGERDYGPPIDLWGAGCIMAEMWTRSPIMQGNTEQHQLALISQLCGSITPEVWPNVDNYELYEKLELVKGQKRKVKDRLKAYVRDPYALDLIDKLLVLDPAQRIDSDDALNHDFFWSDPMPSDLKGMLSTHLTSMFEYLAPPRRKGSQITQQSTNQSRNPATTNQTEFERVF
- Sequence (O60563 whole entry partner): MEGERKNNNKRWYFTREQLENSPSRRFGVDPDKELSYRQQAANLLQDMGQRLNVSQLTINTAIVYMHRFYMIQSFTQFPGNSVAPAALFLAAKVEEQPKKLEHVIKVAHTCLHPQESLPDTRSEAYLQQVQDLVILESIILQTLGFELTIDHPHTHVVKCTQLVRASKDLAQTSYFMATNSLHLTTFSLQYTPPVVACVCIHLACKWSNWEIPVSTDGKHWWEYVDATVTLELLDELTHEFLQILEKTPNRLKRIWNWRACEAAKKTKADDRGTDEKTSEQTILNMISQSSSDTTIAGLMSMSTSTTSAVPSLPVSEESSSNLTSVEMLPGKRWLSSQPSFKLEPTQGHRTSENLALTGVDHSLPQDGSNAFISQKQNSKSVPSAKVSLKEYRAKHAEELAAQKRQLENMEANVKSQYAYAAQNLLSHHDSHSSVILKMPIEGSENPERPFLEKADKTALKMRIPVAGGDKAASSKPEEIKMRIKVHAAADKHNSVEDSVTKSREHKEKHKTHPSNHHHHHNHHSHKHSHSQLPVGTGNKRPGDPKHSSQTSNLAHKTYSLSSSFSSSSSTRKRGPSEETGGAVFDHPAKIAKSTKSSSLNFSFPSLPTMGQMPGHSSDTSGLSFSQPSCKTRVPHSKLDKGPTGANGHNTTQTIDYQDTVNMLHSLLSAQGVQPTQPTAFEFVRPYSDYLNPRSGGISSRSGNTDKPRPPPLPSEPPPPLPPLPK
- test-name: In vitro kinase assay (ADP-Glo Kinase Assay Kit), CDK9/CycTI
- test-conditions: 30 ng CDK9/CycTI, 30 μM CDKtide, 10 μM ATP, 2 hours at room temperature; 8 to 10-point dose response (Tier2); read-out: IC50 Score
pIC50: −log10 of the molar value.
reported-endpoint: pIC50

// below: answered compounds
| compound | pIC50 |
| --- | --- |
| CC(=O)N1CCCC[C@@H]1C(=O)Nc1nc2ccc3cc(F)ccc3c2s1 | 7.00 to 9.00 |
| CN(C)[C@@H]1CC[C@H](C(=O)Nc2nc3ccc4cc(F)ccc4c3s2)C1 | 7.00 to 9.00 |
| O=C(Nc1nc2ccc3cc(F)ccc3c2s1)[C@@H]1CCCCN1 | 6.00 to 6.30 |

### Prompt Look at this compound and give its reported pIC50. O=C(Nc1nc2ccc3cc(F)ccc3c2s1)[C@@H]1CCOC1
### Response 7.00 to 9.00

### Prompt Moving on to CC(=O)N1CCN(C)CC1C(=O)Nc1nc2ccc3cc(F)ccc3c2s1 (single isomer, unassigned) [Compound 66]
### Response 4.70 to 6.00

### Prompt For CC(C)(C)C(=O)N1CCC(C(=O)Nc2nc3ccc4cc(F)ccc4c3s2)CC1 then?
### Response 6.00 to 6.30

### Prompt Consider next the compound O=C(Nc1nc2ccc3cc(F)ccc3c2s1)c1c[nH]cn1 in the same way.
### Response 4.70 to 6.00

### Prompt Also CC(C)(C)OC(=O)N1CCC[C@@H]1C(=O)Nc1nc2ccc3ccccc3c2s1 , if possible.
### Response 4.70 to 6.00

### Prompt Also CC(=O)N1CCC[C@@H]1C(=O)Nc1nc2ccc3ccccc3c2s1 ?
### Response 6.30 to 7.00

---

- system-name: CDK9/CycTI (Homo sapiens)
- test-name: In vitro kinase assay (ADP-Glo Kinase Assay Kit), CDK9/CycTI
- test-conditions: 30 ng CDK9/CycTI, 30 μM CDKtide, 10 μM ATP, 2 hours at room temperature; 8 to 10-point dose response (Tier2); read-out: IC50 Score
reported-endpoint: IC50

// worked examples, IC50 included
| compound | IC50 |
| --- | --- |
| N[C@@H]1CC[C@H](C(=O)Nc2nc3ccc4cc(F)ccc4c3s2)C1 | 1 to 100 nM |
| O=C(Nc1nc2c(s1)-c1ccc(F)cc1CC2)[C@H]1CCC[C@@H](NS(=O)(=O)C2CC2)C1 | 500 to 1000 nM |
| O=C(Nc1nc2ccc3cc(F)ccc3c2s1)C1CCNC1 (racemic) [Compound 83] | 1 to 100 nM |
| O=C(Nc1nc2ccc3cc(F)ccc3c2s1)C1CCNCC1 | 100 to 500 nM |

### Prompt Any idea what IC50 was measured for N[C@H]1CCC[C@@H](C(=O)Nc2nc3ccc4cc(F)ccc4c3s2)C1 ?
### Response 100 to 500 nM

### Prompt And then CC(C)(C)OC(=O)N1CC[C@@H](C(=O)Nc2nc3ccc4cc(F)ccc4c3s2)C1 , what is it?
### Response 1000 to 20000 nM

### Prompt Repeat with CN1CC(C(=O)Nc2nc3ccc4cc(F)ccc4c3s2)C1
### Response 1000 to 20000 nM

### Prompt # iterate: O=C(Nc1nc2ccc3cc(F)ccc3c2s1)C1CCNC1 (single isomer, unassigned) [Compound 51]
### Response 1 to 100 nM

---

- system-name: CDK9/CycTI (Homo sapiens)
- Construct: purchased Carna biosciences 04-110
- test-name: In vitro kinase assay (ADP-Glo Kinase Assay Kit), CDK9/CycTI
- Type: biochemical
- test-conditions: 30 ng CDK9/CycTI, 30 μM CDKtide, 10 μM ATP, 2 hours at room temperature; 8 to 10-point dose response (Tier2); read-out: IC50 Score
reported-endpoint: IC50

### Prompt Requested read-out: IC50. Entry: CC(=O)N(C)[C@@H]1CC[C@H](C(=O)Nc2nc3ccc4cc(F)ccc4c3s2)C1 [Compound 71]
### Response 1 to 100 nM

### Prompt Entry CC(C)(C)OC(=O)N1CCCC[C@@H]1C(=O)Nc1nc2ccc3cc(F)ccc3c2s1 [Compound 23] please
### Response 1 to 100 nM

### Prompt Then this compound: CC(=O)N[C@@H]1CC[C@H](C(=O)Nc2nc3ccc4cc(F)ccc4c3s2)C1 [Compound 25]
### Response 500 to 1000 nM

---

- system-name: CDK9/CycTI (Homo sapiens)
- test-name: In vitro kinase assay (ADP-Glo Kinase Assay Kit), CDK9/CycTI
- test-conditions: 30 ng CDK9/CycTI, 30 μM CDKtide, 10 μM ATP, 2 hours at room temperature; 8 to 10-point dose response (Tier2); read-out: IC50 Score
pIC50: −log10 of the molar value.
pIC50 values by entry

Worked examples, 2 compounds total:
| compound | system-name | pIC50 |
| --- | --- | --- |
| O=C(Nc1nc2ccc3cc(F)ccc3c2s1)c1cn[nH]c1 | CDK9/CycTI (Homo sapiens) | 4.70 to 6.00 |
| C=CC(=O)N[C@H]1CCC[C@@H](C(=O)Nc2nc3ccc4cc(F)ccc4c3s2)C1 | CDK9/CycTI (Homo sapiens) | 6.30 to 7.00 |

### Prompt Bench note: what pIC50 did CC(=O)N1CC[C@H]1C(=O)Nc1nc2ccc3cc(F)ccc3c2s1 show?
### Response 4.70 to 6.00

### Prompt Also O=C(Nc1nc2ccc3cc(F)ccc3c2s1)[C@H]1CCCN1 , if possible.
### Response 6.00 to 6.30

---

- system-name: CDK9/CycTI (Homo sapiens, UniProt P50750)
- test-name: In vitro kinase assay (ADP-Glo Kinase Assay Kit), CDK9/CycTI
- test-conditions: 30 ng CDK9/CycTI, 30 μM CDKtide, 10 μM ATP, 2 hours at room temperature; 8 to 10-point dose response (Tier2); read-out: IC50 Score
reported-endpoint: IC50

| chemical-structure | IC50 |
| --- | --- |
| CS(=O)(=O)N[C@@H]1CCC[C@H](C(=O)Nc2nc3ccc4cc(F)ccc4c3s2)C1 | 0.001 to 0.1 µM |

### Prompt API: value(readout=IC50, system=CDK9/CycTI (Homo sapiens, UniProt P50750)) for record O=C(Nc1nc2ccc3cc(F)ccc3c2s1)[C@H]1CCNC1
### Response 0.1 to 0.5 µM

### Prompt Also check C=CC(=O)N1CCC[C@@H]1C(=O)Nc1nc2ccc3cc(F)ccc3c2s1
### Response 0.001 to 0.1 µM

### Prompt Can you check CS(=O)(=O)N[C@@H]1CCC[C@H](C(=O)Nc2nc3c(s2)-c2ccc(F)cc2CC3)C1 next?
### Response 0.1 to 0.5 µM

---

- system-name: CDK9/CycTI (Homo sapiens)
- Construct: purchased Carna biosciences 04-110
- test-name: In vitro kinase assay (ADP-Glo Kinase Assay Kit), CDK9/CycTI
- Type: biochemical
- test-conditions: 30 ng CDK9/CycTI, 30 μM CDKtide, 10 μM ATP, 2 hours at room temperature; 8 to 10-point dose response (Tier2); read-out: IC50 Score
- Experimental: In vitro kinase assay was performed in white, 384-low volume plates in 5 μl reaction volume consisting of 30 ng CDK9/CycTI (Carna biosciences #04-110), 30 μM CDKtide (Signalchem #C06-58) and 10 μM ATP made in reaction buffer (40 mM Tris, pH 7.5; 20 mM MgCl2; 0.1 mg/ml BSA; 50 μM DTT) at 1 μM & 10 μM compound concentration for Tier1 assay and 8 to 10-point dose response curve for Tier2 assay. […]
reported-endpoint: IC50

Previously resolved entries follow.
| compound | IC50 |
| --- | --- |
| CC(=O)N1CC[C@H](C(=O)Nc2nc3ccc4cc(F)ccc4c3s2)C1 [Compound 52] | 1 to 100 nM |
| CC(=O)N1CCC(C(=O)Nc2nc3ccc4cc(F)ccc4c3s2)C1 (single isomer, unassigned) [Compound 82] | 100 to 500 nM |
| CC(=O)N1CCC[C@H](C(=O)Nc2nc3ccc4cc(F)ccc4c3s2)C1 [Compound 45] | 1 to 100 nM |
| O=C(Nc1nc2ccc3ccccc3c2s1)[C@H]1CCCN1 [Compound 2] | 1000 to 20000 nM |
| CC(=O)N[C@H]1CCC[C@@H](C(=O)Nc2nc3ccc4cc(F)ccc4c3s2)C1 [Compound 79] | 1 to 100 nM |
| O=C(Nc1nc2ccc3cc(F)ccc3c2s1)[C@H]1CCC[C@@H](NS(=O)(=O)C2CC2)C1 [Compound 15-a] | 1 to 100 nM |

### Prompt Recorded IC50 of CC(=O)N1CCC(C(=O)Nc2nc3ccc4cc(F)ccc4c3s2)C1 (single isomer, unassigned) [Compound 36] , please.
### Response 1 to 100 nM

Cited source for all entries: patent US20220281863A1
